# ASSAY_SYSTEM: pooled human IgG (human IgG1,2,3 and 4)
REPORTED_METRIC: Enzyme Activity Endpoint Assay (purified): Fab′2 (ng/µL)
Expressed in ng/µL, but write only the number.

PRT-365 (protein) MSQTEDSESLQRLRDIEDFQAEKKKQNVVYTKWLDGVDVKDHDFRKIVDGNEAYYATPLLNGRGFYDINKDFNRDSDKCAAAVAANMFHYWLDRNRDNVDRFLRQNPEKHGIIELPDGQLKLSDFLNTYESDDGYRDKSKLFDFISENFNGPVWTDKLLDNYINGYAYNYKYGRLIEDPTKNTSKINFFKEVFNEKILTNNHSIRNQNELSVLLSEALYTGKAIGLSYGPAGTRHSLGHIISVWGADLDADGNVVAIYVTDSDDKKLTIGDERVGLKRYKISTDDEGRLRLTAYEETHNTGGQIRGLWTLDTGKQAWADYFDKTEQTGTDQAEQ; 735

Please turn your attention to the following entry.
Q. Returns the measured Enzyme Activity Endpoint Assay (purified): Fab′2 for the input protein. Input: PRT-363 (protein) MSQTEDSESLQRLRDIEDFQAEKEKQNVVYTKWLDGVDVKDHDFRKIVDGNSAYYATPLLNGRGWYDINKDFNRDSDKCAAAVAANMFHYWLDRNRDNVDRFLRQNPEKHGIIELPDGQLKLSDFLNTYESDDGYRDKSKLFDFISENFNGPVWTDKLLDNYINGYAYNSKYGRTIEDPTKNTSKINFFKEVFNEKILTNNHSIRNQNEFSVLLIEALYTGKAIGLSYGPAGLRHGLGHIISVWGADLDADGNVVAIYVTDSDDKKLTIGDERVGLKRYKISTDDEGRLRLTAYEETHNTGGQVRGLWTLDTGKQAWADYFDKTEQTGTDQAEQ
A. 838
